- targetSystem: Vascular endothelial growth factor receptor 2 (Homo sapiens, UniProt P35968); also: assay procedure not described here
- Sequence (P35968 whole entry): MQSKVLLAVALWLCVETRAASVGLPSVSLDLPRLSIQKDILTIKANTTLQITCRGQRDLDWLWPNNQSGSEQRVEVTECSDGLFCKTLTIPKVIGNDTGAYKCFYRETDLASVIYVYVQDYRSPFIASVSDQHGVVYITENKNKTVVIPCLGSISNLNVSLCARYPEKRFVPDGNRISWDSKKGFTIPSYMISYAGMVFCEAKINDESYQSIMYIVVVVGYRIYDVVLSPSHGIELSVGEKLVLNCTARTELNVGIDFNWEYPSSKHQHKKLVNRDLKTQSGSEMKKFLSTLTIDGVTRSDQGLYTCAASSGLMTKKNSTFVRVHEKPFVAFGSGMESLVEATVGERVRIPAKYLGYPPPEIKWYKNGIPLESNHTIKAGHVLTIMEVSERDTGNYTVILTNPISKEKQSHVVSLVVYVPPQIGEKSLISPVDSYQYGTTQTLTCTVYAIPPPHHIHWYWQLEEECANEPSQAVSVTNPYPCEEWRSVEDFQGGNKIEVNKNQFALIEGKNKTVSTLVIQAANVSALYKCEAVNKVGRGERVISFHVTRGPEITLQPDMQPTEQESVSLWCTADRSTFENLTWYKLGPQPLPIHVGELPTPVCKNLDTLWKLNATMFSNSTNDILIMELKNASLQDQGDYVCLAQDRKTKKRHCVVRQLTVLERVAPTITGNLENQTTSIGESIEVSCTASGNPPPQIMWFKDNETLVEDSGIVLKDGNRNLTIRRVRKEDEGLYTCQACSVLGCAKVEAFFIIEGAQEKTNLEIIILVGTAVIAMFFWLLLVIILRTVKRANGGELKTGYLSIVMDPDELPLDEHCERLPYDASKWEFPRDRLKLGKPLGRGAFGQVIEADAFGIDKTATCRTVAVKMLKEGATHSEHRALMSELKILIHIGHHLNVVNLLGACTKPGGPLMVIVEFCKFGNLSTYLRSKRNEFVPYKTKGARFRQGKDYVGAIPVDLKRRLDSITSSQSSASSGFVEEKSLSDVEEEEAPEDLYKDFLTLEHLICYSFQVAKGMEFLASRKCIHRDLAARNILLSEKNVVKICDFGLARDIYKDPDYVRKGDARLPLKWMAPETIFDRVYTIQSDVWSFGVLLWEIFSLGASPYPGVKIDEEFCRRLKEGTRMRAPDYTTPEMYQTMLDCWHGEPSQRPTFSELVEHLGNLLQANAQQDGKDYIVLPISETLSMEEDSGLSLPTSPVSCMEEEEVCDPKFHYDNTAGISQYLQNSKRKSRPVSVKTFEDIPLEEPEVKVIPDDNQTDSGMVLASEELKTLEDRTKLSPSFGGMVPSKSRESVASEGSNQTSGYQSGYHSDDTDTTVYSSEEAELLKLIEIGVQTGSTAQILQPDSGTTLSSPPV
- Assay type: functional
quantityName: AC50

GET AC50 | system: Vascular endothelial growth factor receptor 2 (Homo sapiens, UniProt P35968) | item: CN(C)c1ccc(O)c2c1C[C@H]1C[C@H]3[C@H](N(C)C)C(O)=C(C(N)=O)C(=O)[C@@]3(O)C(O)=C1C2=O [MINOCYCLINE]; also: assay procedure not described here
> 30 µM

GET AC50 | system: Vascular endothelial growth factor receptor 2 (Homo sapiens, UniProt P35968) | item: CC[C@]12CCCN3CCc4c(n(c5ccccc45)[C@@](O)(C(=O)OC)C1)[C@@H]32 [VINCAMINE]; also: assay procedure not described here
> 30 µM

GET AC50 | system: Vascular endothelial growth factor receptor 2 (Homo sapiens, UniProt P35968) | item: CCCc1nc2c(C)cc(-c3nc4ccccc4n3C)cc2n1Cc1ccc(-c2ccccc2C(=O)O)cc1; also: assay procedure not described here
> 10 µM
